- Target desc: recombinant SrtA derived from S. aureus ATCC6538p (Staphylococcus aureus)
- Construct: made in house; host or cells: Escherichia coli
- Assay: SrtA inhibition assay (fluorescence, cleavage of dabcyl-LPETG-edans)
- Type: biochemical
- Experimental parameters: read-out: SrtA IC50; recombinant SrtA, 37 °C, 1 h; value in parentheses
Test readout: pIC50
Answers are plain numbers, as −log10 of the molar value.

Form field pIC50, entry CC12NC(=O)C(Cc3c1[nH]c1ccccc31)n1c2nc2ccccc2c1=O (stereo not shown) : 3.63

* * *

- Target desc: recombinant SrtA derived from S. aureus ATCC6538p (Staphylococcus aureus, UniProt Q2FV99)
- Construct: made in house; host or cells: Escherichia coli
- Sequence (Q2FV99 whole entry): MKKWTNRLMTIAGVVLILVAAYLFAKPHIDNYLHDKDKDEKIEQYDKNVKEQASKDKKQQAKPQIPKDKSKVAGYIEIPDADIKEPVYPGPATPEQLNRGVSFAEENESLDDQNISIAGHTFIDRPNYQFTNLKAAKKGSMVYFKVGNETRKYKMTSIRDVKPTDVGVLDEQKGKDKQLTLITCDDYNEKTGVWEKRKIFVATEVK
- Assay: SrtA inhibition assay (fluorescence, cleavage of dabcyl-LPETG-edans)
- Assay type: biochemical
- Experimental parameters: SrtA IC50, recombinant SrtA, 37 °C, 1 h
Test readout: IC50 (µM)
Numbers only, in µM.

Example results:
Form field IC50, entry CCC(C)C1NC(=O)C(C(C)C)n2c1nc1ccc(OC)cc1c2=O (stereo not shown) [Compound 2, versicomide A] : 269

Form field IC50, entry CC(C)C1C(=O)N2c3ccccc3C3(O)CC(n4cnc5ccccc5c4=O)C(=O)N1C23 (stereo not drawn) [Compound 7, 14-epi-isochaetominine C] : 237

Form field IC50, entry CCC1C(=O)N2c3ccccc3C3(O)CC(n4cnc5ccccc5c4=O)C(=O)N1C23 (stereo not shown) : 232

We next turn to a different compound, shown below.
Form field IC50, entry COc1ccc2cc3[n+](cc2c1OC)CCc1cc2c(cc1-3)OCO2 [Berberine chloride, berberine chloride, reference compound] : 85.9

* * *

- Target desc: recombinant SrtA derived from S. aureus ATCC6538p (Staphylococcus aureus)
- Construct: made in house; host or cells: Escherichia coli
- Assay: SrtA inhibition assay (fluorescence, cleavage of dabcyl-LPETG-edans)
- Format: biochemical
- Experimental parameters: read-out: SrtA IC50; recombinant SrtA, 37 °C, 1 h
Test readout: pIC50
Give bare numbers, as −log10 of the molar value.

Form field pIC50, entry CC12NC(=O)C(Cc3c1[nH]c1ccccc31)n1c2nc2ccccc2c1=O (stereo not shown) [Compound 8, fumiquinazoline K] : 3.63

* * *

Give measured IC50 at 72 h for each item. Keep answers brief.
- Assay: Cytotoxicity assay (SRB), K562
- Type: cell-based
- Experimental parameters: human, K562 (leukemia) cells, K562, 72 h

Form field IC50 at 72 h, entry CC12NC(=O)C(Cc3c1[nH]c1ccccc31)n1c2nc2ccccc2c1=O (centres unmarked) : > 100 µM

Form field IC50 at 72 h, entry CCC(C)C1NC(=O)C(C(C)C)n2c1nc1ccc(OC)cc1c2=O (centres unmarked) [Compound 2, versicomide A] : 13 to 50 µM

Form field IC50 at 72 h, entry CCC1C(=O)N2c3ccccc3C3(O)CC(n4cnc5ccccc5c4=O)C(=O)N1C23 (centres unmarked) : 13 to 50 µM

State recorded IC50 at 72 h for all listed compounds.
1. CC1CCC2C(C=CC(C)(O)C2(C)C(=O)CCO)C1 (centres unmarked)
2. COc1cc([C@@H]2c3cc4c(cc3[C@@H](O[C@@H]3O[C@@H]5CO[C@@H](C)O[C@H]5[C@H](O)[C@H]3O)[C@H]3COC(=O)[C@H]23)OCO4)cc(OC)c1O [etoposide, reference compound]
3. CCC(C)C1NC(=O)C(C(C)C)n2c1nc1c(c2=O)C=C(OC)C=CO1 (centres unmarked)

## Result
1: > 100 µM; 2: 0.5 µM; 3: 13 to 50 µM

State recorded IC50 at 72 h for all listed compounds.
1. CC1C(=O)N2c3ccccc3C3(O)CC(n4cnc5ccccc5c4=O)C(=O)N1C23 (centres unmarked)
2. CC(C)C1C(=O)N2c3ccccc3C3(O)CC(n4cnc5ccccc5c4=O)C(=O)N1C23 (centres unmarked)

## Result
["13 to 50 µM", "13 to 50 µM"]

Cited source for all entries: paper PMC7401278
